Every entry's value here was drawn from ChEMBL document CHEMBL1141228.

Below, each of the compounds is paired with its reported IC50 value.
Target: Cholecystokinin receptor type A (Rattus norvegicus)
Sequence (P30551 whole entry): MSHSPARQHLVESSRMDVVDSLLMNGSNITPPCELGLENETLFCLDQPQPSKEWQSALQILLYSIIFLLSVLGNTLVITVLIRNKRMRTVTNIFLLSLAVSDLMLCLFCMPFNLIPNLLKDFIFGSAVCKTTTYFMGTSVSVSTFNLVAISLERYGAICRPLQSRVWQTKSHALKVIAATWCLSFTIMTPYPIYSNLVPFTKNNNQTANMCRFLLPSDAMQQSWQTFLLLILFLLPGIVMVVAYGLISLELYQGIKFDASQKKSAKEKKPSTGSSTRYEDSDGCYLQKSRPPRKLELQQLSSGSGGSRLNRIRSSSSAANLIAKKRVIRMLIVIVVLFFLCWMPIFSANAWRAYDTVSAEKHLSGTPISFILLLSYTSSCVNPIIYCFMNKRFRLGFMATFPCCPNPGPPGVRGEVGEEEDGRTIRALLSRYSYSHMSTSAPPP

Illustrative cases are given below, each with its answer.
| Record smiles | Test value |
| --- | --- |
| CC(C)(C)OC(=O)N[C@H](Cc1c[nH]c2ccccc12)C(=O)N[C@H]1CC[C@@H]2SC[C@@H](C(=O)N[C@@H](Cc3ccccc3)C(N)=O)N2C1=O | > 1000 nM |
| COC(=O)[C@@H](Cc1ccccc1)NC(=O)[C@@H]1Cc2c([nH]c3ccccc23)[C@H]2C[C@H](NC(=O)[C@@H](Cc3c[nH]c4ccccc34)NC(=O)OC(C)(C)C)C(=O)N21 | > 10000 nM |
| CC(C)(C)OC(=O)N[C@@H](Cc1c[nH]c2ccccc12)C(=O)N[C@H]1CC[C@@H]2SC[C@@H](C(=O)N[C@H](Cc3ccccc3)C(N)=O)N2C1=O | > 1000 nM |
| CC(C)(C)OC(=O)N[C@H](Cc1c[nH]c2ccccc12)C(=O)N[C@H]1C[C@@H]2c3[nH]c4ccccc4c3C[C@@H](C(=O)N[C@H](Cc3ccccc3)C(N)=O)N2C1=O | > 1000 nM |
| CC(C)(C)OC(=O)N[C@@H](Cc1c[nH]c2ccccc12)C(=O)N[C@@H]1C[C@H]2c3[nH]c4ccccc4c3C[C@H](C(=O)N[C@@H](Cc3ccccc3)C(N)=O)N2C1=O | 54.9 nM |
| CC(C)(C)OC(=O)N[C@H](Cc1c[nH]c2ccccc12)C(=O)N[C@@H]1C[C@H]2c3[nH]c4ccccc4c3C[C@H](C(=O)N[C@@H](Cc3ccccc3)C(N)=O)N2C1=O | 25.9 nM |

Kindly review the next compound as well.
The recorded IC50 for CC(C)(C)OC(=O)N[C@@H](Cc1c[nH]c2ccccc12)C(=O)N[C@H]1C[C@@H]2c3[nH]c4ccccc4c3C[C@@H](C(=O)N[C@@H](Cc3ccccc3)C(N)=O)N2C1=O is 625 nM
